- experimental target: base-paired RNA that does not contain internal loops
- protocol: Microscale thermophoresis
- recorded conditions: read-out: Kd for base pair control RNA; MST
observation type: Kd

Record Cc1ccc2nc(Nc3ccc4nc(C)sc4c3)nc(NCCCO)c2c1 , field Kd: > 20 µM
